# Test system: gastric lesions
# Type: in vivo, male Wistar rats
# STUDY CONDITIONS: 50 mg/Kg orally, 4 consecutive days; scale 0 (no lesion) to 5 (perforations)
MEASURED ENDPOINT: mean severity
A bare number is all that is needed in reply.

Task item: // query mean severity value for entry CCOC(=O)c1ccc(NC(=O)Cc2ccc(C(=O)c3ccc(C)cc3)n2C)cc1 [Compound 1-h]
Reply: 1

Task item: // query mean severity value for entry Cc1ccc(C(=O)c2ccc(CC(=O)NCC(=O)O)n2C)cc1 [Compound 1-c]
Reply: 1.5

Task item: // query mean severity value for entry Cc1ccc(C(=O)c2ccc(CC(=O)N3CCN(C)CC3)n2C)cc1 [Compound 3-b]
Reply: 1

Task item: // query mean severity value for entry COc1ccccc1OC(=O)CNC(=O)Cc1ccc(C(=O)c2ccc(C)cc2)n1C [Compound 1-d]
Reply: 1

Task item: // query mean severity value for entry Cc1ccc(C(=O)c2ccc(CC(=O)N3CCOCC3)n2C)cc1 [Compound 3-a]
Reply: 1

Task item: // query mean severity value for entry Cc1ccc(C(=O)c2ccc(CC(=O)NNCC(=O)N3CCN(C)CC3)n2C)cc1 [Compound 1-o]
Reply: 1

* * *

# System: phenyl-p-quinone-induced writhing (abdominal contractions)
# EXPERIMENT SUMMARY: phenylquinone-induced writhing test (analgesic activity), compound given 30 min before phenyl-p-quinone
# Assay type: in vivo, male Wistar rats
# STUDY CONDITIONS: 20 mg/Kg i.p.
We begin with a simple list: items and their reported % Protection.
Give the quantity in %, number only.

In the examples that follow, each entry is paired with its recorded % Protection.
COc1ccccc1OC(=O)CNC(=O)Cc1ccc(C(=O)c2ccc(C)cc2)n1C 87.0
Cc1ccc(C(=O)c2ccc(CC(=O)NNCC(=O)N3CCN(C)CC3)n2C)cc1 87.0
Cc1ccc(C(=O)c2ccc(CC(=O)NCC(=O)O)n2C)cc1 82.0
CCOC(=O)c1ccc(NC(=O)Cc2ccc(C(=O)c3ccc(C)cc3)n2C)cc1 79.0
Cc1ccc(C(=O)c2ccc(CC(=O)N3CCN(C)CC3)n2C)cc1 80.3

Now consider the entry below.
Task item: For the record Cc1ccc(C(=O)c2ccc(CC(=O)N3CCOCC3)n2C)cc1 , what value of % Protection is listed for phenyl-p-quinone-induced writhing (abdominal contractions)?
Reply: 76.0

* * *

# System: brewers' yeast-induced hyperthermia
# EXPERIMENT SUMMARY: antipyretic activity, brewers' yeast-induced hyperthermia
# Assay type: in vivo, albino male Wistar rats
# STUDY CONDITIONS: 50 mg/Kg i.p., 2 h
We begin with a simple list: items and their reported % Temperature decrease.
Give the quantity in %, number only.

In the examples that follow, each entry is paired with its recorded % Temperature decrease.
COc1ccccc1OC(=O)CNC(=O)Cc1ccc(C(=O)c2ccc(C)cc2)n1C 23.0
Cc1ccc(C(=O)c2ccc(CC(=O)NCC(=O)O)n2C)cc1 21.9
Cc1ccc(C(=O)c2ccc(CC(=O)NNCC(=O)N3CCN(C)CC3)n2C)cc1 27.5
CCOC(=O)c1ccc(NC(=O)Cc2ccc(C(=O)c3ccc(C)cc3)n2C)cc1 29.1
Cc1ccc(C(=O)c2ccc(CC(=O)N3CCN(C)CC3)n2C)cc1 23.0

Task item: // query % Temperature decrease value for entry Cc1ccc(C(=O)c2ccc(CC(=O)N3CCOCC3)n2C)cc1
Reply: 26.0

* * *

# Test system: cough provoked by mechanical stimulation of the tracheal bifurcation mucosa
# EXPERIMENT SUMMARY: antitussive activity, mechanically provoked coughing
# Assay type: in vivo, albino Guinea-pigs
# STUDY CONDITIONS: 75 mg/Kg per os, 1 h after administration
We begin with a simple list: items and their reported % inhibition, cough frequency.
Give the quantity in %, number only.

COMPOUND	% inhibition, cough frequency / %
COc1ccccc1OC(=O)CNC(=O)Cc1ccc(C(=O)c2ccc(C)cc2)n1C [Compound 1-d]	29
Cc1ccc(C(=O)c2ccc(CC(=O)N3CCN(C)CC3)n2C)cc1 [Compound 3-b]	18
Cc1ccc(C(=O)c2ccc(CC(=O)NCC(=O)O)n2C)cc1 [Compound 1-c]	22
CCOC(=O)c1ccc(NC(=O)Cc2ccc(C(=O)c3ccc(C)cc3)n2C)cc1 [Compound 1-h]	18
Cc1ccc(C(=O)c2ccc(CC(=O)N3CCOCC3)n2C)cc1 [Compound 3-a]	18

Now consider the entry below.
Task item: // query % inhibition, cough frequency value for entry Cc1ccc(C(=O)c2ccc(CC(=O)O)n2C)cc1 [Tolmetin Na.2H2 O, reference compound]
Reply: 0

* * *

# Test system: cough provoked by mechanical stimulation of the tracheal bifurcation mucosa
# EXPERIMENT SUMMARY: antitussive activity, mechanically provoked coughing
# Format: in vivo, albino Guinea-pigs
# STUDY CONDITIONS: 50 mg/Kg i.p., 1 h after administration
We begin with a simple list: items and their reported % inhibition, cough frequency.
Give the quantity in %, number only.

COMPOUND	TARGET OR TEST SYSTEM	UNIT SPEC	% inhibition, cough frequency
COc1ccccc1OC(=O)CNC(=O)Cc1ccc(C(=O)c2ccc(C)cc2)n1C	cough provoked by mechanical stimulation of the tracheal bifurcation mucosa	%	15
CCOC(=O)c1ccc(NC(=O)Cc2ccc(C(=O)c3ccc(C)cc3)n2C)cc1	cough provoked by mechanical stimulation of the tracheal bifurcation mucosa	%	18

Task item: // query % inhibition, cough frequency value for entry Cc1ccc(C(=O)c2ccc(CC(=O)NCC(=O)O)n2C)cc1
Reply: 25

Task item: // query % inhibition, cough frequency value for entry Cc1ccc(C(=O)c2ccc(CC(=O)N3CCN(C)CC3)n2C)cc1
Reply: 28

Task item: // query % inhibition, cough frequency value for entry Cc1ccc(C(=O)c2ccc(CC(=O)O)n2C)cc1 [Tolmetin Na.2H2 O, reference compound]
Reply: 0

Task item: // query % inhibition, cough frequency value for entry Cc1ccc(C(=O)c2ccc(CC(=O)N3CCOCC3)n2C)cc1
Reply: 15

* * *

We begin with a simple list: items and their reported % Protection.
# System: phenyl-p-quinone-induced writhing (abdominal contractions)
# EXPERIMENT SUMMARY: phenylquinone-induced writhing test (analgesic activity), compound given 30 min before phenyl-p-quinone
# Format: in vivo, male Wistar rats
# STUDY CONDITIONS: 5 mg/Kg per os
Give the quantity in %, number only.

In the examples that follow, each entry is paired with its recorded % Protection.
MOLECULE	% Protection, %
Cc1ccc(C(=O)c2ccc(CC(=O)NNCC(=O)N3CCN(C)CC3)n2C)cc1 [Compound 1-o]	29.3
Cc1ccc(C(=O)c2ccc(CC(=O)NCC(=O)O)n2C)cc1 [Compound 1-c]	25.3
COc1ccccc1OC(=O)CNC(=O)Cc1ccc(C(=O)c2ccc(C)cc2)n1C [Compound 1-d]	29.1

Task item: // query % Protection value for entry Cc1ccc(C(=O)c2ccc(CC(=O)N3CCOCC3)n2C)cc1 [Compound 3-a]
Reply: 16.0

Task item: // query % Protection value for entry Cc1ccc(C(=O)c2ccc(CC(=O)N3CCN(C)CC3)n2C)cc1 [Compound 3-b]
Reply: 20.0

Task item: // query % Protection value for entry CCOC(=O)c1ccc(NC(=O)Cc2ccc(C(=O)c3ccc(C)cc3)n2C)cc1 [Compound 1-h]
Reply: 16.2

* * *

# Tested on: carrageenin-induced oedema
# EXPERIMENT SUMMARY: carrageenin-induced oedema test (anti-inflammatory activity)
# Assay type: in vivo, albino male Wistar rats
# STUDY CONDITIONS: 50 mg/Kg per os, 2 h
MEASURED ENDPOINT: oedema % inhibition
Write the numeric value and append its unit.

In the examples that follow, each entry is paired with its recorded oedema % inhibition.
COMPOUND	oedema % inhibition
Cc1ccc(C(=O)c2ccc(CC(=O)NCC(=O)O)n2C)cc1	51.8%
Cc1ccc(C(=O)c2ccc(CC(=O)O)n2C)cc1 [Tolmetin Na.2H2 O, reference compound]	48.0%
Cc1ccc(C(=O)c2ccc(CC(=O)N3CCN(C)CC3)n2C)cc1	49.1%
CCOC(=O)c1ccc(NC(=O)Cc2ccc(C(=O)c3ccc(C)cc3)n2C)cc1	48.9%
Cc1ccc(C(=O)c2ccc(CC(=O)N3CCOCC3)n2C)cc1	46.0%

Task item: // query oedema % inhibition value for entry COc1ccccc1OC(=O)CNC(=O)Cc1ccc(C(=O)c2ccc(C)cc2)n1C
Reply: 66.9%

Task item: // query oedema % inhibition value for entry Cc1ccc(C(=O)c2ccc(CC(=O)NNCC(=O)N3CCN(C)CC3)n2C)cc1
Reply: 49.2%

* * *

# Tested on: brewers' yeast-induced hyperthermia
# EXPERIMENT SUMMARY: antipyretic activity, brewers' yeast-induced hyperthermia
# Assay type: in vivo, albino male Wistar rats
# STUDY CONDITIONS: 100 mg/Kg i.p., 1 h
MEASURED ENDPOINT: % Temperature decrease (%)
Give the quantity in %, number only.

In the examples that follow, each entry is paired with its recorded % Temperature decrease.
COMPOUND	% Temperature decrease / %
CCOC(=O)c1ccc(NC(=O)Cc2ccc(C(=O)c3ccc(C)cc3)n2C)cc1 [Compound 1-h]	23.1
Cc1ccc(C(=O)c2ccc(CC(=O)N3CCOCC3)n2C)cc1 [Compound 3-a]	21.3

Now consider the entry below.
Task item: // query % Temperature decrease value for entry COc1ccccc1OC(=O)CNC(=O)Cc1ccc(C(=O)c2ccc(C)cc2)n1C [Compound 1-d]
Reply: 28.1
